Biological target: panel of 60 human kinases (Homo sapiens)
Construct: purchased Reaction Biology Corp
Sequence (Q00534 whole entry): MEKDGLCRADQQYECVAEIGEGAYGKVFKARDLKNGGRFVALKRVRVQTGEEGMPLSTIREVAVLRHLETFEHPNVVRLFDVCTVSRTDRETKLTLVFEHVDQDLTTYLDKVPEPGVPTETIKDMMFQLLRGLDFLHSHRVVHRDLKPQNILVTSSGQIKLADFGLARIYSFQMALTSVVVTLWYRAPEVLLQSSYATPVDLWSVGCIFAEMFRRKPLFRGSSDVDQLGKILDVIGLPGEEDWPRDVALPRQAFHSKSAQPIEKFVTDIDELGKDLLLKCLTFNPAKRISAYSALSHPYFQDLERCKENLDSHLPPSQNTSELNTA
Test: Radiolabeled ATP kinase assay, panel of 60 kinases (Table S5)
Type: biochemical
Settings: CDK6/cyclin D1; 0.1 μM; 10 μM ATP; read-out: % Enzyme Activity (relative to DSMO controls)
Experimental: To better understand the biologically relevant targets of compound 1 and its analogs, a second round of cell-free kinase assays was performed. In this expanded assay, we selected ten analogs ranging from moderately to very strongly protective in the CPA assay. These analogs were evaluated for their ability to inhibit a selection of 60 kinases at 0.1 μM and 0.5 μM. […] RNAseq data were used to confirm the expression of each kinase in ES MNs (see Example 12). […]
test.readout: remaining activity at 0.1 µM (%)
Report the value in % with no unit label.

Query for panel of 60 human kinases (Homo sapiens): what remaining activity at 0.1 µM does the record show for CN1CCN(Cc2ccc(-c3cnc4[nH]cc(-c5ccncc5)c4c3)cc2)CC1 ?
23.4

Query for panel of 60 human kinases (Homo sapiens): what remaining activity at 0.1 µM does the record show for CN1CCN(Cc2ccc(-c3cnc4[nH]cc(-c5ccc6[nH]ccc6c5)c4c3)cc2)CC1 [Compound 1, reference compound] ?
47.2

Query for panel of 60 human kinases (Homo sapiens): what remaining activity at 0.1 µM does the record show for CN1CCN(Cc2ccc(-c3cnc4[nH]cc(-c5cccc(Cl)c5)c4c3)cc2)CC1 ?
45.8

Query for panel of 60 human kinases (Homo sapiens): what remaining activity at 0.1 µM does the record show for CN1CCN(Cc2ccc(-c3cnc4[nH]cc(-c5ccccc5Cl)c4c3)cc2)CC1 ?
15.6
